# target.of.assay: human DLL4, full length, on cells (human, UniProt Q9NR61 27-685)
# Sequence (Q9NR61 27-685 limits assumed): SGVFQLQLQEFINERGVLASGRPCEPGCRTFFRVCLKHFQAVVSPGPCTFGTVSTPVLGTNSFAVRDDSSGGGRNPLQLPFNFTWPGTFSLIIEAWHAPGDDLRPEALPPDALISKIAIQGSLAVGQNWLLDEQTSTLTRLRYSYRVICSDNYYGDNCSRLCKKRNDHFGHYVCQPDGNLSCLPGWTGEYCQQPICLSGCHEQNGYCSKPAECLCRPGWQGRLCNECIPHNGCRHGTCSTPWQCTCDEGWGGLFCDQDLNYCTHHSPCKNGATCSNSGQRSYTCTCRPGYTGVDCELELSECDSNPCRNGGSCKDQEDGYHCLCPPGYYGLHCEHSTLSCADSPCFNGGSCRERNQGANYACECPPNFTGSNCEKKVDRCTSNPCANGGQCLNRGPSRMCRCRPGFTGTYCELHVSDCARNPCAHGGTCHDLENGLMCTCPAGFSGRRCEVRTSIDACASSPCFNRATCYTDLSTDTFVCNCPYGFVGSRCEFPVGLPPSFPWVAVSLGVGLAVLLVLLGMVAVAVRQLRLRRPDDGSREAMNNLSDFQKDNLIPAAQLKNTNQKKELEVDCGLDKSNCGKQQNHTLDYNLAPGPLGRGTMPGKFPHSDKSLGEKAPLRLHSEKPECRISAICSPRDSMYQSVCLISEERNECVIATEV
# measurement.protocol: cell-based or functional assay
Reported Notch activation Inhibition (IC50, nM), huDLL4 cell/Notch reporter cells values for a set of binders
State just the number; it will be interpreted in nM.

1A11 rat anti-DLL4 monoclonal antibody (antibody, rat IgG1, V domains shown, rat IgG1/K hybridoma mAb; also called MC13-1A11.2E1; 1A11 (rat mAb)) VH: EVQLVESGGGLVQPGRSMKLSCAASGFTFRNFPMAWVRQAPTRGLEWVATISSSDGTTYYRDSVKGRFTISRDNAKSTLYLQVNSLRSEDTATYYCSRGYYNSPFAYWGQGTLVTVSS VL: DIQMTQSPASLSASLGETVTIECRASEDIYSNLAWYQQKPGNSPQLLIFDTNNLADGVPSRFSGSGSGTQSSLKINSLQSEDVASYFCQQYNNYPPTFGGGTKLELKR	2.9

Note to self: Notch activation Inhibition (IC50, nM), huDLL4 cell/Notch reporter cells recorded for 38H12 rat anti-DLL4 monoclonal antibody (antibody, rat IgG2a, V domains shown, rat IgG2a/k hybridoma mAb; also called MC10-38H12.2G8; 38H12 rat mAb) VH: EVQLVESGGGLVQPGRSLKLSCAASGFTFSNYGMYWIRQAPTKGLQWVAFISHGGGITYYRDSVKGRFTISRDNAKSTLYLQMDSLRSEDTATYHCAALNWELGIDYWGQGVMVTVSS VL: DIQMTQSPASLSASLGETISIECRASEDIYSNLAWYQKKSGKSPQLLIYAANRLQDGVPSRFSGSGSGTQYSLKISGMQPEDEGDYFCLQGSKFPLTFGSGTKLEIKR was 0.5

Note to self: Notch activation Inhibition (IC50, nM), huDLL4 cell/Notch reporter cells recorded for 14A11 rat anti-DLL4 monoclonal antibody (antibody, rat IgG2a, V domains shown, rat IgG2a/K hybridoma mAb; also called MC13-14A11.3A4) VH: EVQLQQSGPELAKPGSSVKISCKASGYTFTNSYISWIKQTTGQGLEYVGYINTGSGGADYNEKFKGKATLTVDKSSRTAFMQLSSLTPGDSAVYYCAKSILLGSTCYFDYWGQGVLVTVSS VL: NTVLTQSPALAVSLGQRVTISCKASRSVSSPMYSYIYWYQQKPGQQPKLLIYRASTLASGVPARFSGSGSGTDFTLNIDPVEADDIATYFCQQSWSDPFTFGSGTKLEIKR was 2.7

Note to self: Notch activation Inhibition (IC50, nM), huDLL4 cell/Notch reporter cells recorded for 15D6 rat anti-DLL4 monoclonal antibody (antibody, rat IgG2a, V domains shown, rat IgG2a/K hybridoma mAb; also called MC13-15D6.1G7) VH: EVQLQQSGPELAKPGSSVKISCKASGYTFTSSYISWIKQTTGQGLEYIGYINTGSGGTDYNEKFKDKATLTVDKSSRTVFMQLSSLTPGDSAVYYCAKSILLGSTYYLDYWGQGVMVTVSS VL: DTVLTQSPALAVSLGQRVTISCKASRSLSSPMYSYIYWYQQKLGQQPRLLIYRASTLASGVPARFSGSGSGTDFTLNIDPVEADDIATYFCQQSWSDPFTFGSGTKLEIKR was 3.2
